Known IC50 of a selection of molecules
biological target: human TRPM8 (Homo sapiens); construct: expressed in transfected cells; host or cells: Chinese hamster ovary (CHO) cells, T-REx tetracycline-inducible expression system (Invitrogen), co-transfected with pcDNA3.1 jellyfish aequorin; experiment: Luminescence readout assay for measuring intracellular calcium (aequorin), hTRPM8 antagonism; type: cell-based; conditions: CHO cell line expressing human TRPM8 and aequorin; activation by icilin, L-menthol or cold buffer (table does not say which)
Sequence (Q7Z2W7 whole entry): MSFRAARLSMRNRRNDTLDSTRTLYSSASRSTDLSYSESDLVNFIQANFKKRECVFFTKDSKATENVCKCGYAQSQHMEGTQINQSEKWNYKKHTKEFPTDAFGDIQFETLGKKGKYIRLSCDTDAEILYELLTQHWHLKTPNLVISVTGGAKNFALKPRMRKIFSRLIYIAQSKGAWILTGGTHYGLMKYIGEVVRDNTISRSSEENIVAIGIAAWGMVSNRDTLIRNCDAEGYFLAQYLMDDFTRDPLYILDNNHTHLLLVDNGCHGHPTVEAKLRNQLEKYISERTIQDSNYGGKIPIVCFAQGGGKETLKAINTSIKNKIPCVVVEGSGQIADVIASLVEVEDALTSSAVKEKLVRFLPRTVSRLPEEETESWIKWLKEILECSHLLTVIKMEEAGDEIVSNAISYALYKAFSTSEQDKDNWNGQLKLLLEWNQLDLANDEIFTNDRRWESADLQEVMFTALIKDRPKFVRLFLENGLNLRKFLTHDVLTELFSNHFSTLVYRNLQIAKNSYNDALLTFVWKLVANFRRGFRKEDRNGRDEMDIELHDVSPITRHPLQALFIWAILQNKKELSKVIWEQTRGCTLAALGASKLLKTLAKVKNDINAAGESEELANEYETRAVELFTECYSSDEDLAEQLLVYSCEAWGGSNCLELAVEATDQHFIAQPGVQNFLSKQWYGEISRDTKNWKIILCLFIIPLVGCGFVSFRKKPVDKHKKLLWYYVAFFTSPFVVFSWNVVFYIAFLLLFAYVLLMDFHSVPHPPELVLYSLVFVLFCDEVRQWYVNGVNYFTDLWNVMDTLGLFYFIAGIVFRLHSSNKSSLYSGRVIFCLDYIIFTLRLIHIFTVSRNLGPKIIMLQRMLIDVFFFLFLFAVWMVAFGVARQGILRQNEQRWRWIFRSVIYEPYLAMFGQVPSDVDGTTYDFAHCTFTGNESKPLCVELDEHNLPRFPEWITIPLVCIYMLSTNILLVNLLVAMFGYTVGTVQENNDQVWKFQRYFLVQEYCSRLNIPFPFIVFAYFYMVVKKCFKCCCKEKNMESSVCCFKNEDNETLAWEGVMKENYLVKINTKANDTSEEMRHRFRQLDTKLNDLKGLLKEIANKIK
measured parameter: IC50 (nM)

| molecule | reported measurement |
| --- | --- |
| Cc1ccc(F)c(NC(=O)N[C@@H](c2ccc(C(F)(F)F)cc2)c2ncccc2C(F)(F)F)c1 [Example 146, acetate] | 3770 |
| COc1cc(CCNC(=O)N[C@@H](c2ccc(C(F)(F)F)cc2)c2ncccc2C(F)(F)F)cc(OC)c1 [Example 93, acetate] | 1440 |
| COc1ncc(NC(=O)N[C@@H](c2ccc(C(F)(F)F)cc2)c2ncccc2C(F)(F)F)cn1 | 407 |
| CCc1cccc(C)c1NC(=O)N[C@@H](c1ccc(C(F)(F)F)cc1)c1ncccc1C(F)(F)F [Example 89, acetate] | 330 |
| COc1cccc([C@H](NC(=O)Nc2cccnc2)c2ncccc2C(F)(F)F)c1 | 1230 |
| Cc1cccc([C@H](NC(=O)Nc2cccnc2)c2ncccc2C(F)(F)F)c1 | 723 |
| O=C(Nc1cccnc1)N[C@@H](c1ccc(C(F)(F)F)c(F)c1)c1ncccc1C(F)(F)F [Example 1, bis(2,2,2-trifluoroacetate)] | 23 |
